- measured.on: human recombinant GST-PAK1-KD protein (Homo sapiens, UniProt Q13153)
- Construct: residues #249-545 of human PAK1, UniProtKP/Swiss Q13153
- Sequence (Q13153 249-545): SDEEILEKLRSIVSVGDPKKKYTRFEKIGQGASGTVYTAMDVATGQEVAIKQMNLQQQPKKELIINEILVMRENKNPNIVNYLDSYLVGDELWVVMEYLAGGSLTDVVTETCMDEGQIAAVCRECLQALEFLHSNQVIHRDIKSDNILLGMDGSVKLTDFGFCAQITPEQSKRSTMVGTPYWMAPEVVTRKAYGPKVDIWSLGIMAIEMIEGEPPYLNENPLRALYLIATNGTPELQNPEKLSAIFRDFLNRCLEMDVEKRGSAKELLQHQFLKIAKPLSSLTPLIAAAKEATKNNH
- test.protocol: GST-PAK1-KD (Kinase Domain) IC50 biochemical assay (microfluidic mobility shift)
- test.settings: GST-PAK1-KD inhibition assay
quantity.measured: Ki (nM)

Answered cases to consult:
INSERT INTO assay_data (smiles_notation, quantity_measured, reported_measurement) VALUES
  ('C[C@@H](c1ccc2[nH]ccc2n1)N(C)c1nccc(Nc2cc([C@@H]3C[C@@H]3F)[nH]n2)n1', 'Ki', 52),
  ('C[C@H](Nc1nccc(Nc2cc(C3CC3)[nH]n2)n1)c1cc2cc[nH]c2cn1', 'Ki', 5),
  ('C[C@H](Nc1nccc(Nc2cc(C3CC3)[nH]n2)n1)c1ncc2[nH]ccc2n1', 'Ki', 3),
  ('C[C@H](Nc1nccc(Nc2cc(C3CC3)[nH]n2)n1)c1nccc2[nH]ccc12', 'Ki', 60);

1: c1cc(Nc2cc(C3CC3)[nH]n2)nc(NCc2cncc3[nH]cnc23)n1
2: CN(Cc1ccc2[nH]ccc2n1)c1nccc(Nc2cc(C3CC3)[nH]n2)n1
For the pair 1 and 2 , which member has the lower Ki number? Identify your selection by its label. 2

====

- measured.on: human recombinant GST-PAK1-KD protein (Homo sapiens)
- Construct: residues #249-545 of human PAK1, UniProtKP/Swiss Q13153
- test.protocol: GST-PAK1-KD (Kinase Domain) IC50 biochemical assay (microfluidic mobility shift)
- test.settings: GST-PAK1-KD inhibition assay
quantity.measured: Ki (nM)

INSERT INTO results (smiles_notation, reported_measurement) VALUES
  ('C[C@@H](c1ccc2[nH]ccc2n1)N(C)c1nccc(Nc2cc([C@H]3C[C@@H]3F)[nH]n2)n1', 8);

I: C[C@@H](c1ccc2[nH]ccc2n1)N(C)c1nccc(Nc2cc(C3CC3)[nH]n2)n1
II: C[C@H](Nc1nccc(Nc2cc(C3CC3)[nH]n2)n1)c1ccc2[nH]ccc2n1
Between the two listed entries I and II , which has its Ki at the higher number? Identify your selection by its label. I
(I: 24 nM, II: 16 nM)

P: C[C@H](Nc1nccc(Nc2cc(C3CC(F)(F)C3)[nH]n2)n1)c1ccc2[nH]ccc2n1
Q: c1cc(Nc2cc(C3CC3)[nH]n2)nc(NCc2cnc3[nH]ccc3c2)n1
For the pair P and Q , which member has the lower Ki number? Identify your selection by its label. P
(P: 22 nM, Q: 72 nM)

The reported numbers originate from patent US8815877B2.
